Target: 14-3-3γ (Homo sapiens, UniProt P61981)
Construct: made in house; host or cells: E. coli NiCo21 (DE3)
Sequence (P61981 1-247): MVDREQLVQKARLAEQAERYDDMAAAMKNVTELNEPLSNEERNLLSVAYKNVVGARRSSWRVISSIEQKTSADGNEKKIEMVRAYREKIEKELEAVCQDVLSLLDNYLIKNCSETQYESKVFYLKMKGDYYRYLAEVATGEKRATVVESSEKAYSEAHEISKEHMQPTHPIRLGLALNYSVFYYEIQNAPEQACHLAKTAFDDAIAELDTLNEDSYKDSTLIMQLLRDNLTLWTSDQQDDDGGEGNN
Assay: Fluorescence anisotropy (FA) binary binding study: 14-3-3 titrated to fluorescein-labelled peptide
Details: Table S4; from FA Kd; replicate 3
Where a SMILES comes first, the peptide text is derived from it. [ ]: non-standard residue; d: D form. ξ: configuration not given here. Phe(4-NO2) = N[C@@H](Cc1ccc([N+](=O)[O-])cc1)C(=O)O; ξAla(4-thiazolyl) = NC(Cc1cscn1)C(=O)O; pS = N[C@@H](COP(=O)(O)O)C(=O)O; β3hS = N[C@@H](CO)CC(=O)O; Nva = CCC[C@H](N)C(=O)O; ξβ3hS = NC(CO)CC(=O)O; βAla = NCCC(=O)O
Recorded Metric: ΔG (kcal/mol)
Answer with a number only, understood to be in kcal/mol.

Compound | Target Desc | ΔG / kcal/mol
CCC[C@H](NC(=O)[C@H](N)CCCCN)C(=O)N[C@@H](Cc1ccc([N+](=O)[O-])cc1)C(=O)N[C@@H](C)C(=O)N[C@@H](COP(=O)(O)O)C(=O)N[C@@H](Cc1ccc([N+](=O)[O-])cc1)C(=O)N[C@@H](CO)CC(=O)NCCC(=O)N[C@@H](Cc1ccc([N+](=O)[O-])cc1)C(=O)N[C@@H](CCCCN)C(N)=O [3a] (H-[dK][Nva][Phe(4-NO2)]A[pS][Phe(4-NO2)][β3hS][βAla][Phe(4-NO2)]K-NH2; N-terminus and C-terminus assumed) | 14-3-3γ (Homo sapiens, UniProt P61981) | -9.7

For the next question, use this compound.
Any idea what its ΔG is? The compound is CCC[C@H](NC(=O)[C@H](N)CCCCN)C(=O)N[C@@H](Cc1ccc([N+](=O)[O-])cc1)C(=O)NC(Cc1cscn1)C(=O)N[C@@H](COP(=O)(O)O)C(=O)N[C@@H](Cc1ccc([N+](=O)[O-])cc1)C(=O)NC(CO)CC(=O)NCCC(=O)N[C@@H](Cc1ccc([N+](=O)[O-])cc1)C(=O)N[C@@H](CCCCN)C(N)=O (stereo partly drawn) [compound 1] (H-[dK][Nva][Phe(4-NO2)][ξAla(4-thiazolyl)][pS][Phe(4-NO2)][ξβ3hS][βAla][Phe(4-NO2)]K-NH2)
-9.7
